- TEST: Pharmacokinetics and biodistribution after 3% PS gel on outer surface of eyelid (Example 26)
- Assay type: in vivo, rabbit
- CONDITION_DESCRIPTION: male, New Zealand White, rabbit, topical; eyelid, 0.5 h; rabbits, 3% PS gel on outer surface of upper eyelids; read-out: Amount in tissue, Mean ± SEM
MEASURED_METRIC: concentration at 0.5 h (µM)
The response must be a number in µM with no trailing unit.

CCOP(=O)(OCC)OCCCCOC(=O)CC1=C(C)/C(=C/c2ccc([S+](C)[O-])cc2)c2ccc(F)cc21 (centres unmarked) ... 8.3

Next item in the queue.
Task: Determine its reported concentration at 0.5 h: CC1=C(CC(=O)O)c2cc(F)ccc2/C1=C\c1ccc([S+](C)[O-])cc1 (centres unmarked)
Result: 1

====

- TEST: Pharmacokinetics and biodistribution after 3% PS gel on outer surface of eyelid (Example 26)
- Type: in vivo, rabbit
- CONDITION_DESCRIPTION: male, New Zealand White, rabbit, topical or ocular; cornea; rabbits, 3% PS gel on outer surface of upper eyelids
The following compounds are listed with their measured Cmax values.
The response must be a number in nM with no trailing unit.

CC1=C(CC(=O)O)c2cc(F)ccc2/C1=C\c1ccc([S+](C)[O-])cc1 (centres unmarked) ... 600

Next item in the queue.
Task: Determine its reported Cmax: CCOP(=O)(OCC)OCCCCOC(=O)CC1=C(C)/C(=C/c2ccc([S+](C)[O-])cc2)c2ccc(F)cc21 (centres unmarked)
Result: 1800

====

- TEST: Pharmacokinetics and biodistribution after 3% PS gel on outer surface of eyelid (Example 26)
- Assay type: in vivo, rabbit
- CONDITION_DESCRIPTION: male, New Zealand White, rabbit, topical; cornea, 1 h; rabbits, 3% PS gel on outer surface of upper eyelids; read-out: Amount in tissue, Mean ± SEM
MEASURED_METRIC: concentration at 1 h (nM)
The response must be a number in nM with no trailing unit.

CCOP(=O)(OCC)OCCCCOC(=O)CC1=C(C)/C(=C/c2ccc([S+](C)[O-])cc2)c2ccc(F)cc21 (centres unmarked) [PS, phosphosulindac] ... 1300

Next item in the queue.
Task: Determine its reported concentration at 1 h: CC1=C(CC(=O)O)c2cc(F)ccc2/C1=C\c1ccc([S+](C)[O-])cc1 (centres unmarked) [sulindac]
Result: 600

====

- TEST: Pharmacokinetics and biodistribution of PS upon oral administration (Example 27)
- Assay type: in vivo, rat
- CONDITION_DESCRIPTION: Sprague-Dawley, rat; vagus nerve; rats, single oral dose of PS 250 mg/kg
MEASURED_METRIC: half-life (h)
The response must be a number in h with no trailing unit.

Task: Determine its reported half-life: CCOP(=O)(OCC)OCCCCOC(=O)CC1=C(C)/C(=C/c2ccc([S+](C)[O-])cc2)c2ccc(F)cc21 (stereo not shown) [PS, phosphosulindac]
Result: 3.3

====

- TEST: Pharmacokinetics and biodistribution after 3% PS gel on outer surface of eyelid (Example 26)
- Format: in vivo, rabbit
- CONDITION_DESCRIPTION: male, New Zealand White, rabbit, topical; vitreous, 24 h; rabbits, 3% PS gel on outer surface of upper eyelids; read-out: Amount in tissue, Mean ± SEM
The following compounds are listed with their measured concentration at 24 h values.
The response must be a number in nM with no trailing unit.

CCOP(=O)(OCC)OCCCCOC(=O)CC1=C(C)/C(=C/c2ccc([S+](C)[O-])cc2)c2ccc(F)cc21 (centres unmarked) [PS, phosphosulindac] ... 0

Task: Determine its reported concentration at 24 h: CC1=C(CC(=O)O)c2cc(F)ccc2/C1=C\c1ccc([S+](C)[O-])cc1 (centres unmarked) [sulindac]
Result: 0

Every entry's value here was drawn from patent US20250345350A1.
